Test system: Klebsiella pneumoniae
Experimental Protocol: Activity of Klebsiella pneumoniae TEM26 assessed as drug hydrolysis by spectrophotometry
Value Kind: log10(kcat) (log10 of the value in s⁻¹)

{"columns": ["Smiles Record", "log10(kcat)"],
 "data": [
  ["CO/N=C(\\C(=O)N[C@@H]1C(=O)N2C(C(=O)O)=C(COC(C)=O)CS[C@H]12)c1csc(N)n1", 0.46],
  ["CC(C)(O/N=C(\\C(=O)N[C@@H]1C(=O)N2C(C(=O)[O-])=C(C[n+]3ccccc3)CS[C@H]12)c1csc(N)n1)C(=O)O", 1.98],
  ["Nc1nc(/C(=N/O)C(=O)N[C@@H]2C(=O)N3C(C(=O)O)=C(/C=C4\\CCN([C@@H]5CCNC5)C4=O)CS[C@H]23)ns1", 0.84],
  ["O=C(Cc1cccs1)N[C@@H]1C(=O)N2C(C(=O)[O-])=C(C[n+]3ccccc3)CS[C@H]12", 1.57],
  ["CO/N=C(\\C(=O)N[C@@H]1C(=O)N2C(C(=O)[O-])=C(C[N+]3(C)CCCC3)CS[C@H]12)c1csc(N)n1", 1.30],
  ["CC1(C)S[C@@H]2[C@H](NC(=O)Cc3ccccc3)C(=O)N2[C@H]1C(=O)O", 1.88]
]}

* * *

Target Entity: Beta-lactamase TEM (Escherichia coli)
Experimental Protocol: Ratio of Kcat to Km of Escherichia coli TEM1 assessed as drug hydrolysis by spectrophotometry relative to cephaloridine
Design: scale not given: the % may be the effect or the level left
Value Kind: Activity (%)

{"columns": ["Smiles Record", "Value Kind", "Reported Value"],
 "data": [
  ["CO/N=C(\\C(=O)N[C@@H]1C(=O)N2C(C(=O)[O-])=C(C[N+]3(C)CCCC3)CS[C@H]12)c1csc(N)n1", "Activity", 0.38],
  ["CC(C)(O/N=C(\\C(=O)N[C@@H]1C(=O)N2C(C(=O)[O-])=C(C[n+]3ccccc3)CS[C@H]12)c1csc(N)n1)C(=O)O", "Activity", 0.00067],
  ["Nc1nc(/C(=N/O)C(=O)N[C@@H]2C(=O)N3C(C(=O)O)=C(/C=C4\\CCN([C@@H]5CCNC5)C4=O)CS[C@H]23)ns1", "Activity", 1.6],
  ["CC1(C)S[C@@H]2[C@H](NC(=O)Cc3ccccc3)C(=O)N2[C@H]1C(=O)O", "Activity", 5600]
]}

* * *

Target Entity: Beta-lactamase (Pseudomonas aeruginosa (strain ATCC 15692 / PAO1 / 1C / PRS 101 / LMG12228)) (UniProt P24735)
Sequence (P24735 27-397 limits assumed): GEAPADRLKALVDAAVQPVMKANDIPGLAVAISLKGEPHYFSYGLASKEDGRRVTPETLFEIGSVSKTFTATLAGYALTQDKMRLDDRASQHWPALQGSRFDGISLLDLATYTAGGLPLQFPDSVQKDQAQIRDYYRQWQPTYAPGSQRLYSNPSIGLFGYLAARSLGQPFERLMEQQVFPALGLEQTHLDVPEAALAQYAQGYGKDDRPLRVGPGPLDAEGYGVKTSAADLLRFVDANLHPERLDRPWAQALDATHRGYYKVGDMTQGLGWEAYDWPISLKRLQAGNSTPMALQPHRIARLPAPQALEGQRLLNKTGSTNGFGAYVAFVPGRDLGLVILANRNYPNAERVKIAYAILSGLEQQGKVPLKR
Experimental Protocol: Activity of Pseudomonas aeruginosa 4352 AmpC assessed as drug hydrolysis by spectrophotometry relative to cephaloridine
Set-up: scale not given: the % may be the effect or the level left

{"columns": ["Smiles Record", "Relation Qualifier", "Activity, %"],
 "data": [
  ["O=C(Cc1cccs1)N[C@@H]1C(=O)N2C(C(=O)O)=C(/C=C/c3ccc([N+](=O)[O-])cc3[N+](=O)[O-])CS[C@H]12", "=", 68],
  ["CO/N=C(\\C(=O)N[C@@H]1C(=O)N2C(C(=O)[O-])=C(C[N+]3(C)CCCC3)CS[C@H]12)c1csc(N)n1", "<", 0.012],
  ["CC(C)(O/N=C(\\C(=O)N[C@@H]1C(=O)N2C(C(=O)[O-])=C(C[n+]3ccccc3)CS[C@H]12)c1csc(N)n1)C(=O)O", "<", 0.01],
  ["CC1(C)S[C@@H]2[C@H](NC(=O)Cc3ccccc3)C(=O)N2[C@H]1C(=O)O", "=", 37],
  ["Nc1nc(/C(=N/O)C(=O)N[C@@H]2C(=O)N3C(C(=O)O)=C(/C=C4\\CCN([C@@H]5CCNC5)C4=O)CS[C@H]23)ns1", "<", 0.024]
]}

* * *

Below: a set of entries, each annotated with reported Activity.
Target Entity: Beta-lactamase (Pseudomonas aeruginosa (strain ATCC 15692 / PAO1 / 1C / PRS 101 / LMG12228)) (UniProt P24735)
Experimental Protocol: Activity of Pseudomonas aeruginosa 18SH AmpC assessed as drug hydrolysis by spectrophotometry relative to cephaloridine
Parameters: scale not given: the % may be the effect or the level left
Value Kind: Activity (%)

{"columns": ["Smiles Record", "Relation Qualifier", "Reported Value"],
 "data": [
  ["CC(C)(O/N=C(\\C(=O)N[C@@H]1C(=O)N2C(C(=O)[O-])=C(C[n+]3ccccc3)CS[C@H]12)c1csc(N)n1)C(=O)O", "<", 0.1],
  ["CC1(C)S[C@@H]2[C@H](NC(=O)Cc3ccccc3)C(=O)N2[C@H]1C(=O)O", "=", 35],
  ["CO/N=C(\\C(=O)N[C@@H]1C(=O)N2C(C(=O)[O-])=C(C[N+]3(C)CCCC3)CS[C@H]12)c1csc(N)n1", "<", 0.1],
  ["Nc1nc(/C(=N/O)C(=O)N[C@@H]2C(=O)N3C(C(=O)O)=C(/C=C4\\CCN([C@@H]5CCNC5)C4=O)CS[C@H]23)ns1", "=", 0.028]
]}

* * *

Target Entity: Beta-lactamase SHV-1 (Klebsiella pneumoniae) (UniProt P0AD64)
Sequence (P0AD64 whole entry): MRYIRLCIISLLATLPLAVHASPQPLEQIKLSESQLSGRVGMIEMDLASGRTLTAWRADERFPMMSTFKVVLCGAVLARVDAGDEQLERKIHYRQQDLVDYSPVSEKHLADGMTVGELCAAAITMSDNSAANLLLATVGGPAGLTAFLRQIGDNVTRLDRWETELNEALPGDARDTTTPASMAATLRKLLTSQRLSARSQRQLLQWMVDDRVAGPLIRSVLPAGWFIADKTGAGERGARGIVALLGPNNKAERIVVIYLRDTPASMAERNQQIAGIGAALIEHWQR
Experimental Protocol: Activity of Klebsiella pneumoniae SHV1 assessed as drug hydrolysis by spectrophotometry relative to cephaloridine
Set-up: scale not given: the % may be the effect or the level left
Value Kind: Activity (%)

{"columns": ["Smiles Record", "Unit Of Measure", "Reported Value"],
 "data": [
  ["CO/N=C(\\C(=O)N[C@@H]1C(=O)N2C(C(=O)[O-])=C(C[N+]3(C)CCCC3)CS[C@H]12)c1csc(N)n1", "%", 0.42],
  ["CC1(C)S[C@@H]2[C@H](NC(=O)Cc3ccccc3)C(=O)N2[C@H]1C(=O)O", "%", 260],
  ["CC(C)(O/N=C(\\C(=O)N[C@@H]1C(=O)N2C(C(=O)[O-])=C(C[n+]3ccccc3)CS[C@H]12)c1csc(N)n1)C(=O)O", "%", 0.0026],
  ["Nc1nc(/C(=N/O)C(=O)N[C@@H]2C(=O)N3C(C(=O)O)=C(/C=C4\\CCN([C@@H]5CCNC5)C4=O)CS[C@H]23)ns1", "%", 6]
]}

* * *

Below: a set of entries, each annotated with reported Activity.
Target Entity: Beta-lactamase (Morganella morganii) (UniProt P94958)
Experimental Protocol: Activity of Morganella morganii AmpC assessed as drug hydrolysis by spectrophotometry relative to cephaloridine
Design: scale not given: the % may be the effect or the level left
Value Kind: Activity

{"columns": ["Smiles Record", "Value Kind", "Reported Value"],
 "data": [
  ["Nc1nc(/C(=N/O)C(=O)N[C@@H]2C(=O)N3C(C(=O)O)=C(/C=C4\\CCN([C@@H]5CCNC5)C4=O)CS[C@H]23)ns1", "Activity", "< 0.0064%"],
  ["O=C(Cc1cccs1)N[C@@H]1C(=O)N2C(C(=O)O)=C(/C=C/c3ccc([N+](=O)[O-])cc3[N+](=O)[O-])CS[C@H]12", "Activity", "160%"],
  ["CC(C)(O/N=C(\\C(=O)N[C@@H]1C(=O)N2C(C(=O)[O-])=C(C[n+]3ccccc3)CS[C@H]12)c1csc(N)n1)C(=O)O", "Activity", "< 0.14%"],
  ["CC1(C)S[C@@H]2[C@H](NC(=O)Cc3ccccc3)C(=O)N2[C@H]1C(=O)O", "Activity", "26%"],
  ["CO/N=C(\\C(=O)N[C@@H]1C(=O)N2C(C(=O)[O-])=C(C[N+]3(C)CCCC3)CS[C@H]12)c1csc(N)n1", "Activity", "< 0.047%"]
]}

* * *

Target Entity: Beta-lactamase CTX-M (Escherichia coli) (UniProt Q9EXV5)
Experimental Protocol: Activity of Escherichia coli CTX-M-15 assessed as drug hydrolysis by spectrophotometry relative to cephaloridine
Parameters: scale not given: the % may be the effect or the level left
Below: a set of entries, each annotated with reported Activity.
Value Kind: Activity (%)

{"columns": ["Smiles Record", "Value Kind", "Unit Of Measure", "Reported Value"],
 "data": [
  ["CC1(C)S[C@@H]2[C@H](NC(=O)Cc3ccccc3)C(=O)N2[C@H]1C(=O)O", "Activity", "%", 25],
  ["CO/N=C(\\C(=O)N[C@@H]1C(=O)N2C(C(=O)O)=C(COC(C)=O)CS[C@H]12)c1csc(N)n1", "Activity", "%", 95],
  ["Nc1nc(/C(=N/O)C(=O)N[C@@H]2C(=O)N3C(C(=O)O)=C(/C=C4\\CCN([C@@H]5CCNC5)C4=O)CS[C@H]23)ns1", "Activity", "%", 140],
  ["CC(C)(O/N=C(\\C(=O)N[C@@H]1C(=O)N2C(C(=O)[O-])=C(C[n+]3ccccc3)CS[C@H]12)c1csc(N)n1)C(=O)O", "Activity", "%", 2.3],
  ["CO/N=C(\\C(=O)N[C@@H]1C(=O)N2C(C(=O)[O-])=C(C[N+]3(C)CCCC3)CS[C@H]12)c1csc(N)n1", "Activity", "%", 24]
]}
